// remaining at 0.5 h lookup, one value per entry
Assay: Drug metabolism in rat liver microsomes assessed as drug recovery pre-incubated at 37 degC for 5 mins measured after 30 mins in absence of NADPH by LC/MS/MS method
Assay type: ADME, microsome
Details: read-out: Drug recovery

moleculeSmiles | remaining at 0.5 h
CCCCSC[C@H]([C@H](C)O)n1cnc2c(N)ncnc21 | 97%
COC(=O)c1cccc(CC[C@H]([C@H](C)O)n2cnc3c(N)ncnc32)c1 | 99%
CCc1ccc(CC[C@H]([C@H](C)O)n2cnc3c(N)ncnc32)s1 | 95%
CNC(=O)c1cccc(CC[C@H]([C@H](C)O)n2cnc3c(N)ncnc32)c1 | 100%
C[C@H](O)[C@@H](CCc1cccc(C(F)(F)F)c1)n1cnc2c(N)ncnc21 | 91%
C[C@H](O)[C@@H](CCc1cccc(-c2cnccn2)c1)n1cnc2c(N)ncnc21 | 85%
C[C@H](O)[C@@H](CCc1cccc(-c2ccccn2)c1)n1cnc2c(N)ncnc21 | 100%
C[C@H](O)[C@@H](CCc1cccc(C(F)(F)F)c1)n1cnc(C(N)=O)c1 | 92%
C[C@H](O)[C@@H](CCC1CCCCC1)n1cnc2c(N)ncnc21 | 94%
C[C@H](O)[C@@H](CCc1ccc(C(F)(F)F)cc1)n1cnc2c(N)ncnc21 | 93%
C[C@H](O)[C@@H](CCc1cccc(-c2nccs2)c1)n1cnc2c(N)ncnc21 | 91%
C[C@H](O)[C@@H](CSc1cccc(C(F)(F)F)c1)n1cnc2c(N)ncnc21 | 100%

---

Assay: Volume of distribution at steady state in Wistar rat at 3 mg/kg, iv after 0.25 to 24 hrs by LC/MS/MS method
Format: ADME, organism-based
Settings: in vivo, read-out: Vdss
// Vd lookup, one value per entry

moleculeSmiles | Vd
C[C@H](O)[C@@H](CCc1cccc(C(F)(F)F)c1)n1cnc2c(N)ncnc21 | 1.88 L/kg
C[C@H](O)[C@@H](CCc1ccc(C(F)(F)F)cc1)n1cnc2c(N)ncnc21 | 7.01 L/kg

---

Experiment: Drug metabolism in rat liver microsomes assessed as drug recovery pre-incubated at 37 degC for 5 mins before NADPH addition and measured after 30 mins by LC/MS/MS method
Format: ADME, microsome
Settings: read-out: Drug recovery
Entries are grouped by remaining at 0.5 h into these classes: c1 = under 80%, c2 = from 80% up to 90%, c3 = 90% and over

moleculeSmiles | labelValue
CCCCSC[C@H]([C@H](C)O)n1cnc2c(N)ncnc21 | c2
CCc1ccc(CC[C@H]([C@H](C)O)n2cnc3c(N)ncnc32)s1 | c1
C[C@H](O)[C@@H](CCc1cccc(C(F)(F)F)c1)n1cnc2c(N)ncnc21 | c2
C[C@H](O)[C@@H](CCc1cccc(-c2nccs2)c1)n1cnc2c(N)ncnc21 | c1
COC(=O)c1cccc(CC[C@H]([C@H](C)O)n2cnc3c(N)ncnc32)c1 | c3
C[C@H](O)[C@@H](CCc1cccc(C(F)(F)F)c1)n1cnc(C(N)=O)c1 | c2
C[C@H](O)[C@@H](CCC1CCCCC1)n1cnc2c(N)ncnc21 | c1
C[C@H](O)[C@@H](CSc1cccc(C(F)(F)F)c1)n1cnc2c(N)ncnc21 | c2
C[C@H](O)[C@@H](CCc1ccc(C(F)(F)F)cc1)n1cnc2c(N)ncnc21 | c3
C[C@H](O)[C@@H](CCc1cccc(-c2ccccn2)c1)n1cnc2c(N)ncnc21 | c1

---

// remaining at 0.5 h lookup, one value per entry
Assay: Drug metabolism in human liver microsomes assessed as drug recovery pre-incubated at 37 degC for 5 mins measured after 30 mins in absence of NADPH by LC/MS/MS method
Format: ADME, microsome
Details: read-out: Drug recovery

moleculeSmiles | remaining at 0.5 h, %
C[C@H](O)[C@@H](CCC1CCCCC1)n1cnc2c(N)ncnc21 | 83
C[C@H](O)[C@@H](CCc1cccc(C(F)(F)F)c1)n1cnc(C(N)=O)c1 | 94
CCCCSC[C@H]([C@H](C)O)n1cnc2c(N)ncnc21 | 85
C[C@H](O)[C@@H](CCc1cccc(C(F)(F)F)c1)n1cnc2c(N)ncnc21 | 95
C[C@H](O)[C@@H](CCc1cccc(-c2ccccn2)c1)n1cnc2c(N)ncnc21 | 91
C[C@H](O)[C@@H](CSc1cccc(C(F)(F)F)c1)n1cnc2c(N)ncnc21 | 89
C[C@H](O)[C@@H](CCc1cccc(-c2nccs2)c1)n1cnc2c(N)ncnc21 | 100
CCc1ccc(CC[C@H]([C@H](C)O)n2cnc3c(N)ncnc32)s1 | 95
CNC(=O)c1cccc(CC[C@H]([C@H](C)O)n2cnc3c(N)ncnc32)c1 | 92
C[C@H](O)[C@@H](CCc1cccc(-c2cnccn2)c1)n1cnc2c(N)ncnc21 | 94
C[C@H](O)[C@@H](CCc1ccc(C(F)(F)F)cc1)n1cnc2c(N)ncnc21 | 95
COC(=O)c1cccc(CC[C@H]([C@H](C)O)n2cnc3c(N)ncnc32)c1 | 65

---

Assay: Clearance in Wistar rat at 1 mg/kg, iv after 0.25 to 24 hrs by LC/MS/MS method
Type: ADME, organism-based
Details: in vivo

moleculeSmiles | unitLabel | clearance
C[C@H](O)[C@@H](CCc1cccc(C(F)(F)F)c1)n1cnc(C(N)=O)c1 | mL/min/kg | 33.3

---

// AUC(0-t) lookup, one value per entry
Test: AUC (0 to t) in Wistar rat at 3 mg/kg, iv after 0.25 to 24 hrs by LC/MS/MS method
Assay type: ADME, organism-based
Set-up: time upper 24 hr, dose 3 mg/kg, time lower 0.25 hr, route intravenous
Conditions: in vivo

moleculeSmiles | AUC(0-t)
C[C@H](O)[C@@H](CCc1cccc(C(F)(F)F)c1)n1cnc2c(N)ncnc21 | 1.61 µM·h
C[C@H](O)[C@@H](CCc1ccc(C(F)(F)F)cc1)n1cnc2c(N)ncnc21 | 2.21 µM·h

---

// clearance lookup, one value per entry
Experiment: Clearance in Wistar rat at 3 mg/kg, iv after 0.25 to 24 hrs by LC/MS/MS method
Type: ADME, organism-based
Conditions: in vivo
quantityKind: clearance (mL/min/kg)

moleculeSmiles | reading
C[C@H](O)[C@@H](CCc1ccc(C(F)(F)F)cc1)n1cnc2c(N)ncnc21 | 59
C[C@H](O)[C@@H](CCc1cccc(C(F)(F)F)c1)n1cnc2c(N)ncnc21 | 85

---

// half-life lookup, one value per entry
Test: Half life in Wistar rat at 3 mg/kg, iv after 0.25 to 24 hrs by LC/MS/MS method
Type: ADME, organism-based
Settings: in vivo
quantityKind: half-life

moleculeSmiles | reading
C[C@H](O)[C@@H](CCc1cccc(C(F)(F)F)c1)n1cnc2c(N)ncnc21 | < 0.5 h
C[C@H](O)[C@@H](CCc1ccc(C(F)(F)F)cc1)n1cnc2c(N)ncnc21 | 2.21 h

---

Target: Adenosine deaminase (Bos taurus, UniProt P56658)
Sequence (P56658 whole entry): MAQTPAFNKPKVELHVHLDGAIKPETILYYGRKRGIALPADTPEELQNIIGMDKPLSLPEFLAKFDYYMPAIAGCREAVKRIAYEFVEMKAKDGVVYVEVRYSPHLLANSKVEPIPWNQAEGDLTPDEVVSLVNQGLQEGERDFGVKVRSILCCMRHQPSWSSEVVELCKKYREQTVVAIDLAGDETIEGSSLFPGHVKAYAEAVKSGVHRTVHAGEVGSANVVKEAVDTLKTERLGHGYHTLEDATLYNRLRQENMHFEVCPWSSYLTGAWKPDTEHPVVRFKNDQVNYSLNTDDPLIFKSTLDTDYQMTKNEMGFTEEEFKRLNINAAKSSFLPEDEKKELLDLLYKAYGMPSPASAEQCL
Experiment: Inhibition of bovine adenosine deaminase pre-incubated for 5 mins before adenosine addition
Settings: read-out: Ki
// log10(Ki) lookup, one value per entry
quantityKind: log10(Ki) (log10 of the value in nM)

moleculeSmiles | reading
C[C@H](O)[C@@H](CCc1ccc(C(F)(F)F)cc1)n1cnc2c(N)ncnc21 | 0.72
C[C@H](O)[C@@H](CSc1ccccc1)n1cnc2c(N)ncnc21 | 2.13
C[C@H](O)[C@@H](CCc1cccc(CO)c1)n1cnc2c(N)ncnc21 | 0.66
C[C@H](O)[C@@H](CCc1ccc(C(F)(F)F)cc1)n1cnc(C(N)=O)c1 | 1.46
C[C@H](O)[C@@H](CCc1cccc(C(N)=O)c1)n1cnc2c(N)ncnc21 | 0.46
C[C@H](O)[C@@H](CSc1cccc(C(F)(F)F)c1)n1cnc2c(N)ncnc21 | 1.40
C[C@H](O)[C@@H](CCc1cccc(Br)c1)n1cnc2c(N)ncnc21 | -0.22
C[C@H](O)[C@@H](CCc1cccc(C(=O)O)c1)n1cnc2c(N)ncnc21 | 1.72
CNC(=O)c1cccc(CC[C@H]([C@H](C)O)n2cnc3c(N)ncnc32)c1 | 0.43
Cc1ccccc1SC[C@H]([C@H](C)O)n1cnc2c(N)ncnc21 | 1.82
C[C@H](O)[C@@H](CCc1cccc(C(F)(F)F)c1)n1cnc2c(N)ncnc21 | 0.04
CCc1ccc(CC[C@H]([C@H](C)O)n2cnc3c(N)ncnc32)s1 | 0.32
C[C@H](O)[C@@H](CCc1cccc(C(=O)N(C)C)c1)n1cnc2c(N)ncnc21 | 0.26
C[C@H](O)[C@@H](CCc1cccc(-c2cnccn2)c1)n1cnc2c(N)ncnc21 | 0.28
C[C@H](O)[C@@H](CCc1cccc(F)c1)n1cnc2c(N)ncnc21 | 0.20
C[C@H](O)[C@@H](CCc1cccc(C(=O)N2CCCC2)c1)n1cnc2c(N)ncnc21 | 0.34
C[C@H](O)[C@@H](CCc1cccc(C(F)(F)F)c1)n1cnc(C(N)=O)c1 | 0.77
C[C@H](O)[C@@H](CCc1ccccc1C(F)(F)F)n1cnc2c(N)ncnc21 | 0.79
C[C@H](O)[C@@H](CCc1cccc(-c2ccccn2)c1)n1cnc2c(N)ncnc21 | 0.36
CCCCSC[C@H]([C@H](C)O)n1cnc2c(N)ncnc21 | 1.73
COC(=O)c1cccc(CC[C@H]([C@H](C)O)n2cnc3c(N)ncnc32)c1 | 0.34
C[C@H](O)[C@@H](CCc1cccc(C(=O)NC2CCCC2)c1)n1cnc2c(N)ncnc21 | 0.26
